Cited source for all entries: the supplement of paper PMC10307832

Tested on: EPLC-272H
measurement.description: relative viability (nuclei count vs DMSO), 5 days (fraction); higher = more cells survive
applied.conditions: first compound 2.53 µM
API: label(entry) gives label 1 if the entry's relative viability is strictly smaller than 0.3; on equality or larger values it gives label 0.

Item O=c1[nH]c2ccccc2n1C1CCN(CCCC(c2ccc(F)cc2)c2ccc(F)cc2)CC1 [Pimozide] + CCNC(=O)c1noc(-c2cc(C(C)C)c(O)cc2O)c1-c1ccc(CN2CCOCC2)cc1 [Luminespib] (partner 0.01 µM) : relative viability beneath 0.3, strictly?
label 1

Ok, now O=c1[nH]c2ccccc2n1C1CCN(CCCC(c2ccc(F)cc2)c2ccc(F)cc2)CC1 [Pimozide] + NC(=O)Nc1cc(-c2cccc(F)c2)sc1C(=O)N[C@H]1CCCNC1 [AZD7762] (partner 0.2 µM)
label 1

Moving on to the next molecule: Cc1cnc(-c2cnc(NCCNc3ccc(C#N)cn3)nc2-c2ccc(Cl)cc2Cl)[nH]1 + CC(=O)c1c(C)c2cnc(Nc3ccc(N4CCNCC4)cn3)nc2n(C2CCCC2)c1=O [Palbociclib] (partner 0.5 µM)
label 0

Can you handle Cc1cnc(-c2cnc(NCCNc3ccc(C#N)cn3)nc2-c2ccc(Cl)cc2Cl)[nH]1 + Nc1nc2[nH]cc(CCc3ccc(C(=O)N[C@@H](CCC(=O)O)C(=O)O)cc3)c2c(=O)[nH]1 [Pemetrexed] (partner 0.2 µM) next?
label 1

Now the molecule O=c1[nH]c2ccccc2n1C1CCN(CCCC(c2ccc(F)cc2)c2ccc(F)cc2)CC1 [Pimozide] + Cc1cc(Nc2cc(N3CCN(C)CC3)nc(Sc3ccc(NC(=O)C4CC4)cc3)n2)n[nH]1 [Tozasertib] (partner 0.1 µM)
label 1

Thanks! And O=c1[nH]c2ccccc2n1C1CCN(CCCC(c2ccc(F)cc2)c2ccc(F)cc2)CC1 [Pimozide] + O=C(CCCCCCC(=O)Nc1ccccc1)NO [Vorinostat] (partner 1 µM) ?
label 0

Query Cc1cnc(-c2cnc(NCCNc3ccc(C#N)cn3)nc2-c2ccc(Cl)cc2Cl)[nH]1 + CCNC(=O)c1noc(-c2cc(C(C)C)c(O)cc2O)c1-c1ccc(CN2CCOCC2)cc1 [Luminespib] (partner 0.01 µM) next
label 1

###

Consider the following molecules; for each one, report its relative viability.
Test system: NCI-H1944
measurement.description: relative viability (nuclei count vs DMSO), 5 days (fraction); higher = more cells survive
applied.conditions: first compound 2.53 µM
Write no unit; give the number alone.

# input molecule: Cc1cnc(-c2cnc(NCCNc3ccc(C#N)cn3)nc2-c2ccc(Cl)cc2Cl)[nH]1 + C[C@]1(O)C[C@@H](c2nc(-c3ccc4ccc(-c5ccccc5)nc4c3)c3c(N)nccn32)C1 [Linsitinib] (partner 1 µM) ; wanted: its relative viability
1.21

O=c1[nH]c2ccccc2n1C1CCN(CCCC(c2ccc(F)cc2)c2ccc(F)cc2)CC1 [Pimozide] + O=C(CCCCCCC(=O)Nc1ccccc1)NO [Vorinostat] (partner 1 µM) ?
0.636

And then O=c1[nH]c2ccccc2n1C1CCN(CCCC(c2ccc(F)cc2)c2ccc(F)cc2)CC1 [Pimozide] + N=C(N)NC(=N)NCCc1ccccc1 [Phenformin] (partner 250 µM) , what is it?
0.184

Now give it for Cc1cnc(-c2cnc(NCCNc3ccc(C#N)cn3)nc2-c2ccc(Cl)cc2Cl)[nH]1 + CC(=O)c1c(C)c2cnc(Nc3ccc(N4CCNCC4)cn3)nc2n(C2CCCC2)c1=O [Palbociclib] (partner 0.5 µM) too.
0.322

# repeat for O=c1[nH]c2ccccc2n1C1CCN(CCCC(c2ccc(F)cc2)c2ccc(F)cc2)CC1 [Pimozide] + Cc1nc(NC(=O)N2CCC[C@H]2C(N)=O)sc1-c1ccnc(C(C)(C)C(F)(F)F)c1 [Alpelisib] (partner 2 µM)
0.824

Likewise for Cc1cnc(-c2cnc(NCCNc3ccc(C#N)cn3)nc2-c2ccc(Cl)cc2Cl)[nH]1 + N=C(N)NC(=N)NCCc1ccccc1 [Phenformin] (partner 250 µM) ?
0.195

###

Tested on: UMC-11
measurement.description: relative viability (nuclei count vs DMSO), 5 days (fraction); higher = more cells survive
applied.conditions: first compound 0.8 µM
Decision: relative viability beneath 0.5 gives true (1); relative viability meeting or exceeding 0.5 gives false (0).

Please check: relative viability for O=c1[nH]c2ccccc2n1C1CCN(CCCC(c2ccc(F)cc2)c2ccc(F)cc2)CC1 [Pimozide] + Nc1ncn([C@H]2C[C@H](O)[C@@H](CO)O2)c(=O)n1 [Decitabine] (partner 2 µM) , strictly under 0.5 or not?
false (0)

Now consider Cc1cnc(-c2cnc(NCCNc3ccc(C#N)cn3)nc2-c2ccc(Cl)cc2Cl)[nH]1 + CC(C)C[C@H](NC(=O)[C@H](Cc1ccccc1)NC(=O)c1cnccn1)B(O)O [Bortezomib] (partner 0.002 µM) .
false (0)

Queued: Cc1cnc(-c2cnc(NCCNc3ccc(C#N)cn3)nc2-c2ccc(Cl)cc2Cl)[nH]1 + CC1(C)CCC(c2ccc(Cl)cc2)=C(CN2CCN(c3ccc(C(=O)NS(=O)(=O)c4ccc(N[C@H](CCN5CCOCC5)CSc5ccccc5)c(S(=O)(=O)C(F)(F)F)c4)cc3)CC2)C1 [Navitoclax] (partner 0.5 µM)
true (1)

Moving on to the next compound: O=c1[nH]c2ccccc2n1C1CCN(CCCC(c2ccc(F)cc2)c2ccc(F)cc2)CC1 [Pimozide] + CS(=O)(=O)CCNCc1ccc(-c2ccc3ncnc(Nc4ccc(OCc5cccc(F)c5)c(Cl)c4)c3c2)o1 [Lapatinib] (partner 2 µM)
false (0)

How about this compound: O=c1[nH]c2ccccc2n1C1CCN(CCCC(c2ccc(F)cc2)c2ccc(F)cc2)CC1 [Pimozide] + CC(=O)c1c(C)c2cnc(Nc3ccc(N4CCNCC4)cn3)nc2n(C2CCCC2)c1=O [Palbociclib] (partner 0.5 µM)
true (1)

Thanks! And Cc1cnc(-c2cnc(NCCNc3ccc(C#N)cn3)nc2-c2ccc(Cl)cc2Cl)[nH]1 + C[C@@H](Oc1cc(-c2cnn(C3CCNCC3)c2)cnc1N)c1c(Cl)ccc(F)c1Cl [Crizotinib] (partner 1 µM) ?
false (0)

Please give the result for O=c1[nH]c2ccccc2n1C1CCN(CCCC(c2ccc(F)cc2)c2ccc(F)cc2)CC1 [Pimozide] + CC1(C)CCC(c2ccc(Cl)cc2)=C(CN2CCN(c3ccc(C(=O)NS(=O)(=O)c4ccc(N[C@H](CCN5CCOCC5)CSc5ccccc5)c(S(=O)(=O)C(F)(F)F)c4)cc3)CC2)C1 [Navitoclax] (partner 0.5 µM) too.
true (1)

Now try Cc1cnc(-c2cnc(NCCNc3ccc(C#N)cn3)nc2-c2ccc(Cl)cc2Cl)[nH]1 + Cc1nc(NC(=O)N2CCC[C@H]2C(N)=O)sc1-c1ccnc(C(C)(C)C(F)(F)F)c1 [Alpelisib] (partner 2 µM) .
false (0)

// next record Cc1cnc(-c2cnc(NCCNc3ccc(C#N)cn3)nc2-c2ccc(Cl)cc2Cl)[nH]1 + CC(=O)Nc1cccc(-n2c(=O)n(C3CC3)c(=O)c3c(Nc4ccc(I)cc4F)n(C)c(=O)c(C)c32)c1 [Trametinib] (partner 0.02 µM)
true (1)

Can you handle Cc1cnc(-c2cnc(NCCNc3ccc(C#N)cn3)nc2-c2ccc(Cl)cc2Cl)[nH]1 + O=C(c1cc(Cc2n[nH]c(=O)c3ccccc23)ccc1F)N1CCN(C(=O)C2CC2)CC1 [Olaparib] (partner 8 µM) next?
true (1)

Ok, now O=c1[nH]c2ccccc2n1C1CCN(CCCC(c2ccc(F)cc2)c2ccc(F)cc2)CC1 [Pimozide] + C[C@]1(O)C[C@@H](c2nc(-c3ccc4ccc(-c5ccccc5)nc4c3)c3c(N)nccn32)C1 [Linsitinib] (partner 1 µM)
false (0)

Also Cc1cnc(-c2cnc(NCCNc3ccc(C#N)cn3)nc2-c2ccc(Cl)cc2Cl)[nH]1 + Nc1nc2[nH]cc(CCc3ccc(C(=O)N[C@@H](CCC(=O)O)C(=O)O)cc3)c2c(=O)[nH]1 [Pemetrexed] (partner 0.2 µM) , if possible.
false (0)

Repeat with Cc1cnc(-c2cnc(NCCNc3ccc(C#N)cn3)nc2-c2ccc(Cl)cc2Cl)[nH]1 + COc1cc2c(Oc3ccc(NC(=O)C4(C(=O)Nc5ccc(F)cc5)CC4)cc3F)ccnc2cc1OCCCN1CCOCC1 [Foretinib] (partner 0.25 µM)
false (0)

###

Answer each item with its documented relative viability.
Tested on: LK-2
measurement.description: relative viability (nuclei count vs DMSO), 5 days (fraction); higher = more cells survive
applied.conditions: first compound 8 µM

// map O=c1[nH]c2ccccc2n1C1CCN(CCCC(c2ccc(F)cc2)c2ccc(F)cc2)CC1 [Pimozide] + COc1cc2c(Oc3ccc(NC(=O)C4(C(=O)Nc5ccc(F)cc5)CC4)cc3F)ccnc2cc1OCCCN1CCOCC1 [Foretinib] (partner 0.25 µM) to recorded relative viability (system: LK-2)
1.24

Try O=c1[nH]c2ccccc2n1C1CCN(CCCC(c2ccc(F)cc2)c2ccc(F)cc2)CC1 [Pimozide] + CC(=O)Nc1cccc(-n2c(=O)n(C3CC3)c(=O)c3c(Nc4ccc(I)cc4F)n(C)c(=O)c(C)c32)c1 [Trametinib] (partner 0.02 µM) next.
0.727

Now consider O=c1[nH]c2ccccc2n1C1CCN(CCCC(c2ccc(F)cc2)c2ccc(F)cc2)CC1 [Pimozide] + CC1(C)CCC(c2ccc(Cl)cc2)=C(CN2CCN(c3ccc(C(=O)NS(=O)(=O)c4ccc(N[C@H](CCN5CCOCC5)CSc5ccccc5)c(S(=O)(=O)C(F)(F)F)c4)cc3)CC2)C1 [Navitoclax] (partner 0.5 µM) .
1.05

And the next one, O=c1[nH]c2ccccc2n1C1CCN(CCCC(c2ccc(F)cc2)c2ccc(F)cc2)CC1 [Pimozide] + Nc1nc2[nH]cc(CCc3ccc(C(=O)N[C@@H](CCC(=O)O)C(=O)O)cc3)c2c(=O)[nH]1 [Pemetrexed] (partner 0.2 µM) ?
0.265
